subject-of-test: T1, Siglec-7-ECD (human, UniProt Q9Y286 19-353)
T1 construct: also called p75; AIRM
protocol-summary: monovalent Fab; bio-layer interferometry (ForteBio) per Methods
pKd: −log10 of the molar value.
Documented pKd across a set of binders
parameter: pKd

[[record]]
binder = "humanized 16H11-derived Fab, VH AK447-2 / VL AK418-2 (Fab, V domains shown, Measured as monovalent Fab; also called No. 26) VH: QVQLVQSGAEVKKPGSSVKVSCKASGYDFSNFWMNWVRQAPGQGLEWMGQIYPGDGEINYNQKFQGRVTITADESTSTAYMELSSLRSEDTAVYYCARDDYLRAMDIWGQGTMVTVSS VL: DIQMTQSPSSLSASVGDRVTITCRASGNIHNYLAWYQQKPGKAPKFLLYSAKRLESGVPSRFSGSGSGTDYTLTISSLQPEDFATYYCQHFWSSPYTFGGGTKVEIK"
parameter = "pKd"
observed = "9.82 to 10.12"

[[record]]
binder = "humanized 16H11-derived Fab, VH AK465-17 / VL AK418-2 (Fab, V domains shown, Measured as monovalent Fab; also called No. 39; FH465-17 and VL418-2) VH: QVQLVQSGAEVKKPGSSVKVSCKASGYDFSNFWMNWVRQAPGQGLEWMGQIYPGDGEIKYAQKFQGRVTITADESTSTAYMELSSLRSEDTAVYYCARDDYLRAMDIWGQGTMVTVSS VL: DIQMTQSPSSLSASVGDRVTITCRASGNIHNYLAWYQQKPGKAPKFLLYSAKRLESGVPSRFSGSGSGTDYTLTISSLQPEDFATYYCQHFWSSPYTFGGGTKVEIK"
parameter = "pKd"
observed = "> 10.12"

[[record]]
binder = "humanized 16H11-derived Fab, VH AK447-2 / VL AK448-3 (Fab, V domains shown, Measured as monovalent Fab; also called No. 27) VH: QVQLVQSGAEVKKPGSSVKVSCKASGYDFSNFWMNWVRQAPGQGLEWMGQIYPGDGEINYNQKFQGRVTITADESTSTAYMELSSLRSEDTAVYYCARDDYLRAMDIWGQGTMVTVSS VL: DIQMTQSPSSLSASVGDRVTITCRASQNIHNYLAWYQQKPGKAPKFLLYSAKRLESGVPSRFSGSGSGTDYTLTISSLQPEDFATYYCQHFWSSPYTFGQGTKLEIK"
parameter = "pKd"
observed = "9.82 to 10.12"

